tested on: 463943-066-T-J2-PDC complex spheroid growth; assay: Anticancer human tumor 463943-066-T-J2-PDC patient-derived colon adenocarcinoma cell line growth inhibition [Asc]; conditions: second compound 0.0316 µM; first compound 0.0316 µM; stronger effect = lower value
Overview of reported viability, T/C across a group of compounds:

Value of measured viability, T/C for the entry CCN1CCN(Cc2ccc(Nc3ncc(F)c(-c4cc(F)c5nc(C)n(C(C)C)c5c4)n3)nc2)CC1 + CNC(C)C(=O)NC1CN(S(=O)(=O)c2cccc(S(=O)(=O)N3CCC4CCC(C(=O)NC(c5ccccc5)c5ccccc5)N4C(=O)C(NC(=O)C(C)NC)C3)c2)CCC2CCC(C(=O)NC(c3ccccc3)c3ccccc3)N2C1=O : 94.9%

----------
system: 463943-066-T-J2-PDC complex spheroid growth; assay: Anticancer human tumor 463943-066-T-J2-PDC cell line growth inhibition [Asc]; settings: second compound 0.1 µM; first compound 0.0949 µM; stronger effect = lower value;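 note: compound exposure lasted 7 days; 100% = DMSO vehicle control wells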
Assay Endpoint: viability, T/C (%)
// note: answer is a bare numeric in %

Field viability, T/C (463943-066-T-J2-PDC complex spheroid growth), entry NC(=O)C(=Cn1cnc(-c2cc(C(F)(F)F)cc(C(F)(F)F)c2)n1)c1cncnc1 + Cc1c(S(C)(=O)=O)c(-c2cc(F)cc(N3CCN(c4ccc(NS(=O)(=O)c5ccc(NC(CCN6CCC(C(=O)OCCCP(=O)(O)O)CC6)CSc6ccccc6)c(S(=O)(=O)C(F)(F)F)c5)cc4)CC3)c2)c(-c2ccc(Cl)cc2)n1C(C)C : 81.8

More entries:
Field viability, T/C (463943-066-T-J2-PDC complex spheroid growth), entry CCN1C(C(=O)NC23CCC(C(=O)O)(CC2)CC3)C(c2cccc(Cl)c2F)C2(C(=O)Nc3cc(Cl)ccc32)C12CCCCC2 (stereo not given) + Cc1c(S(C)(=O)=O)c(-c2cc(F)cc(N3CCN(c4ccc(NS(=O)(=O)c5ccc(NC(CCN6CCC(C(=O)OCCCP(=O)(O)O)CC6)CSc6ccccc6)c(S(=O)(=O)C(F)(F)F)c5)cc4)CC3)c2)c(-c2ccc(Cl)cc2)n1C(C)C : 85.9

Field viability, T/C (463943-066-T-J2-PDC complex spheroid growth), entry Cc1nc(N2CCC3(CC2)COC(C)C3N)c(CO)nc1Sc1ccnc(N)c1Cl (stereo not given) + CNC(C)C(=O)NC1CN(S(=O)(=O)c2cccc(S(=O)(=O)N3CCC4CCC(C(=O)NC(c5ccccc5)c5ccccc5)N4C(=O)C(NC(=O)C(C)NC)C3)c2)CCC2CCC(C(=O)NC(c3ccccc3)c3ccccc3)N2C1=O : 89.1

Field viability, T/C (463943-066-T-J2-PDC complex spheroid growth), entry Cc1nc(N2CCC3(CC2)COC(C)C3N)c(CO)nc1Sc1ccnc(N)c1Cl (stereo not given) + Cc1c(S(C)(=O)=O)c(-c2cc(F)cc(N3CCN(c4ccc(NS(=O)(=O)c5ccc(NC(CCN6CCC(C(=O)OCCCP(=O)(O)O)CC6)CSc6ccccc6)c(S(=O)(=O)C(F)(F)F)c5)cc4)CC3)c2)c(-c2ccc(Cl)cc2)n1C(C)C : 90.7

Field viability, T/C (463943-066-T-J2-PDC complex spheroid growth), entry NC(=O)C(=Cn1cnc(-c2cc(C(F)(F)F)cc(C(F)(F)F)c2)n1)c1cncnc1 + CNC(C)C(=O)NC1CN(S(=O)(=O)c2cccc(S(=O)(=O)N3CCC4CCC(C(=O)NC(c5ccccc5)c5ccccc5)N4C(=O)C(NC(=O)C(C)NC)C3)c2)CCC2CCC(C(=O)NC(c3ccccc3)c3ccccc3)N2C1=O : 80.5
